These entries and their values trace back to PubChem BioAssay (EPA / NIEHS).

# Tgt: human Retinoid X Receptor beta (RXRb), RXRB (gene 6257) (UniProt P28702)
# Sequence (P28702 whole entry, looked up): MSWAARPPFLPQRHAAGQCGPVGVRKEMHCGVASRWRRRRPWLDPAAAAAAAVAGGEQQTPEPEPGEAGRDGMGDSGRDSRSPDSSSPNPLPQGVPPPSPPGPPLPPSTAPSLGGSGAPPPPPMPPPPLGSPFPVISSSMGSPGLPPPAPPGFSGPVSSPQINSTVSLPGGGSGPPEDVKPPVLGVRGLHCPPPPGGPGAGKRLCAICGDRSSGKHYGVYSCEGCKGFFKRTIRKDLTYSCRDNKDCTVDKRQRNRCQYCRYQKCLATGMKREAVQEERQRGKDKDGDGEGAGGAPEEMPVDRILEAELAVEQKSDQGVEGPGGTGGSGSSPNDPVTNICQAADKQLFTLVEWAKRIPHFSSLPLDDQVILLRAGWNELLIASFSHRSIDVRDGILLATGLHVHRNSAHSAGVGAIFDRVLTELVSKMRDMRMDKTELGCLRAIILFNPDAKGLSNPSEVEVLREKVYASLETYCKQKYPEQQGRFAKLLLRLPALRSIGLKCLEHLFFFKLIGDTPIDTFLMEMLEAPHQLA
# Method Summary: ATG_RXRb_TRANS: Attagene TRANS-FACTORIAL HepG2 Assay for human Retinoid X Receptor beta (RXRb) (AID 2283013)
Records with an inconclusive call do not appear. Active and inactive are the calls of the source. The calls were made as follows: active = hit-call score of the fitted dose curve at least 0.9, where 1 is the maximum; inconclusive = response in the unintended direction; inactive = score below 0.9.
Form entry, call: pick from Yes for active, No for inactive

See these solved cases before continuing.
> print(dat)
                                  compound  group
1  O=C1Nc2ccccc2C1(c1ccc(O)cc1)c1ccc(O)cc1     No
2                   CC1=CC[C@H](C(C)C)C=C1    Yes
3                    C=CCCCCCCCCC(=O)OCCCC    Yes
4            Cc1ccc2c(c1)C(=O)c1ccccc1C2=O     No
5                                 C1=CCCC1     No

Ask: Assay result, entry CC/C=C\CCOC(=O)CCCCC — outcome?
Reply: No

Ask: Assay result, entry CC(=O)OC1C2(C)CCC(C2)C1(C)C (configuration not stated) — outcome?
Reply: No

* * *

# Tgt: Cellular tumor antigen p53 (Homo sapiens)
# Method Summary: ATG_p53_CIS: Attagene CIS-FACTORIAL HepG2 Assay for human p53 Transcription Factor (AID 2282994)
# Condition Context: HepG2 p53 cis-element reporter, Attagene mRNA; actives raise or lower the signal
Calls of active or inactive are those of the source. Rule for the calls: active = hit-call score of the fitted dose curve at least 0.9, where 1 is the maximum; inactive = score below 0.9.
Form entry, call: pick from active, inactive

See these solved cases before continuing.
> print(dat)
                                    compound                                       tgt     group
 1                   O=C(Nc1ccccc1)c1ccccc1O  Cellular tumor antigen p53 (Homo sapiens)  inactive
 2              CCOc1ccc(N)c([N+](=O)[O-])c1  Cellular tumor antigen p53 (Homo sapiens)  inactive
 3    CC(=O)Nc1ccc2c(c1)Cc1cc(NC(C)=O)ccc1-2  Cellular tumor antigen p53 (Homo sapiens)  inactive
 4                   CC=CC(=O)N(CC)c1ccccc1C  Cellular tumor antigen p53 (Homo sapiens)  inactive
 5                         CC(=O)OCCC1CCCCC1  Cellular tumor antigen p53 (Homo sapiens)  inactive
 6                   C=CCOc1c(Br)cc(Br)cc1Br  Cellular tumor antigen p53 (Homo sapiens)  inactive
 7                              NC(CO)(CO)CO  Cellular tumor antigen p53 (Homo sapiens)  inactive
 8  Cc1ccc(C2OC[C@@H]3OC(c4ccc(C)cc4)O[C@H]([C@H](O)CO)[C@@H]3O2)cc1 (stereo partly specified)  Cellular tumor antigen p53 (Homo sapiens)  inactive
 9                   CC(=O)Oc1ccc(C(C)=O)cc1  Cellular tumor antigen p53 (Homo sapiens)  inactive
10  C=C(C)[C@@H]1CCC2=CCC[C@@H](C)[C@]2(C)C1  Cellular tumor antigen p53 (Homo sapiens)  inactive

Below: the item to evaluate.
Ask: Assay result, entry C=C1[C@H]2CC[C@@H]3[C@H]2C(C)(C)CCC[C@]13C — outcome?
Reply: inactive

* * *

# Method Summary: ATG_VDRE_CIS: Attagene CIS-FACTORIAL HepG2 Assay for human Vitamin D Receptor Element (VDRE) (AID 2282968)
# Condition Context: HepG2 VDRE cis-reporter transcription, actives raise or lower the signal
Calls of active or inactive are those of the source. The calls were made as follows: active = hit-call score of the fitted dose curve at least 0.9, where 1 is the maximum; inactive = score below 0.9.
Form entry, call: pick from y = active, n = inactive

> print(dat)
                                  compound  group
1  CCN(CC)c1ccc(C(=O)c2ccccc2C(=O)O)c(O)c1      y
2        FC(F)=C(F)OC(F)(F)C(F)(F)C(F)(F)F      n
3                             Cc1cccc(N)n1      n

Ask: Assay result, entry CN(C)CCCN(C)C — outcome?
Reply: n

Ask: Assay result, entry O=C(O)c1cc(Cl)cc([N+](=O)[O-])c1Cl — outcome?
Reply: n

Ask: Assay result, entry CCOc1ccc(N)c([N+](=O)[O-])c1 — outcome?
Reply: n

Ask: Assay result, entry CCCCC(CC)CCC(CC(C)C)OS(=O)(=O)O (configuration not stated) — outcome?
Reply: n

Ask: Assay result, entry O=P(O)(O)Oc1ccccc1 — outcome?
Reply: n

Ask: Assay result, entry NC(CO)(CO)CO — outcome?
Reply: n

Ask: Assay result, entry CC(C)CCCCCOC(=O)CCS — outcome?
Reply: n

Ask: Assay result, entry Cc1ccc2c(c1)C(=O)c1ccccc1C2=O — outcome?
Reply: n

* * *

# Tgt: Transcriptional activator Myb (Homo sapiens)
# Method Summary: ATG_Myb_CIS: Attagene CIS-FACTORIAL HepG2 Assay for human Myeloblastosis (Myb) Proto-Oncogene Transcription Factor (AID 2282986)
# Condition Context: HepG2 Attagene CIS-FACTORIAL Myb reporter transcription; actives raise or lower the signal
Active and inactive are the calls of the source. How the source made its calls: active means hit-call score of the fitted dose curve at least 0.9, where 1 is the maximum; inactive means score below 0.9.
Form entry, call: pick from T = active, F = inactive

See these solved cases before continuing.
> print(dat)
                                   compound  group
1          CN(C)c1ccc(N=Nc2ccccc2C(=O)O)cc1      T
2                         Cc1cccc(C(=O)O)c1      F
3  Cc1ccc(N/N=c2\c(=O)cc/c(=N/Nc3ccc(S(=O)(=O)O)cc3)c2=O)c(C)c1      F

Ask: Assay result, entry C=C(C)[C@@H]1CCC2=CCC[C@@H](C)[C@]2(C)C1 — outcome?
Reply: F

Ask: Assay result, entry C1=Cc2ccccc2C1 — outcome?
Reply: F

Ask: Assay result, entry O=C(O)c1ccccc1Nc1cccc(C(F)(F)F)c1 — outcome?
Reply: F

Ask: Assay result, entry CC1=NC(C)OC1C (stereo unspecified) — outcome?
Reply: F

Ask: Assay result, entry OCCN(CCO)c1ccccc1 — outcome?
Reply: F

Ask: Assay result, entry O=C(c1ccccc1)C1CCC1 — outcome?
Reply: F

Ask: Assay result, entry Cc1ccc(C(C)(C)C)cc1 — outcome?
Reply: F

* * *

# Method Summary: ATG_PPRE_CIS: Attagene CIS-FACTORIAL HepG2 Assay for human Peroxisome Proliferator-activated Response Element (PPRE) (AID 2282958)
# Condition Context: HepG2 PPRE cis-element reporter, Attagene transcription factor profiling; actives raise or lower the signal
Calls of active or inactive are those of the source. The calls were made as follows: active = hit-call score of the fitted dose curve at least 0.9, where 1 is the maximum; inactive = score below 0.9.
Result Type: AC50

Reference set (5 entries):
> print(dat)
                            compound    result
1     CCCCC/C=C\C/C=C\CCCCCCCC(=O)OC  inactive
2                    CC(C)C(=O)C(C)C  inactive
3  CCCCCCCC[N+](C)(CCCCCCCC)CCCCCCCC  inactive
4       CC(C)(C)c1n[nH]c(=O)n(N)c1=O  inactive
5                      OCCNCc1ccccc1  inactive

Ask: What measured AC50 goes with Cc1cc(C)c(C)c(O)c1 ?
Reply: inactive

Ask: What measured AC50 goes with CC(C)=CCC[C@H](C)CCO ?
Reply: inactive

Ask: What measured AC50 goes with CC1=CC[C@H]2C[C@@H]1C2(C)C ?
Reply: inactive

Ask: What measured AC50 goes with O=C(OCC1CCC2OC2C1)C1CCC2OC2C1 (stereo not given) ?
Reply: inactive

Ask: What measured AC50 goes with Cc1ccccc1C ?
Reply: inactive

Ask: What measured AC50 goes with CCC(CO)CO ?
Reply: inactive

Ask: What measured AC50 goes with CCCCCCCCO[C@@H]1O[C@H](CO)[C@@H](O)[C@H](O)[C@H]1O ?
Reply: inactive

Ask: What measured AC50 goes with CC(CC=O)CCCC(C)(C)O (stereo not given) ?
Reply: inactive

* * *

# Tgt: human Thyroid Receptor alpha (THRa1), THRA (gene 7067) (UniProt P10827)
# Sequence (P10827 whole entry, looked up): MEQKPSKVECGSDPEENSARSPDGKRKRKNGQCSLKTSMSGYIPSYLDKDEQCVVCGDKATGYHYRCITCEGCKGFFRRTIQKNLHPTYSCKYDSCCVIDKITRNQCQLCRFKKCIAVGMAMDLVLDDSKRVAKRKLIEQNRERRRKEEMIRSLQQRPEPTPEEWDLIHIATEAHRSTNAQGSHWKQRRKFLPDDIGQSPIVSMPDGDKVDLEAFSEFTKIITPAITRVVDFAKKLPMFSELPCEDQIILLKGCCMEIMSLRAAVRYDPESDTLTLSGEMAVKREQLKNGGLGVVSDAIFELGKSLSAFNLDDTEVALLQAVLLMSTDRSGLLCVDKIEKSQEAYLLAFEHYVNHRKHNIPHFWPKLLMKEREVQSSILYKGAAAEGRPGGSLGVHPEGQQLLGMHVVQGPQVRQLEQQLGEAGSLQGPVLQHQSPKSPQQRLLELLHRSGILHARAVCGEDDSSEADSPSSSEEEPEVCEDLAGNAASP
# Method Summary: ATG_THRa1_TRANS: Attagene TRANS-FACTORIAL HepG2 Assay for human Thyroid Receptor alpha (THRa1) (AID 2283014)
Inconclusive results are not listed. Calls of active or inactive are those of the source. Rule for the calls: active = hit-call score of the fitted dose curve at least 0.9, where 1 is the maximum; inconclusive = response in the unintended direction; inactive = score below 0.9.
Form entry, call: pick from active, inactive

See these solved cases before continuing.
Compound	Group
O=C1CCC(=O)N1Cl	inactive
C=C[Si](C)(C)O[Si](C)(C)C=C	inactive
CN(C)CCCN(C)C	inactive

Ask: Assay result, entry COc1ccc([C@@H]2CC(=O)c3c(O)cc(O[C@@H]4O[C@H](CO[C@@H]5O[C@@H](C)[C@H](O)[C@@H](O)[C@H]5O)[C@@H](O)[C@H](O)[C@H]4O)cc3O2)cc1OC — outcome?
Reply: inactive

Ask: Assay result, entry CC(CC=O)CCCC(C)(C)O (stereo unspecified) — outcome?
Reply: inactive

Ask: Assay result, entry CC=CC(=O)N(CC)c1ccccc1C — outcome?
Reply: inactive

Ask: Assay result, entry C=CC(C)(CCC=C(C)C)OC(=O)C(C)C (stereo unspecified) — outcome?
Reply: inactive

Ask: Assay result, entry O=C1CCCC(=O)O1 — outcome?
Reply: inactive

Ask: Assay result, entry O=S(=O)(O)c1cc(S(=O)(=O)O)c2ccc3c(S(=O)(=O)O)cc(S(=O)(=O)O)c4ccc1c2c43 — outcome?
Reply: inactive

Ask: Assay result, entry C=C[Si](OC(C)=O)(OC(C)=O)OC(C)=O — outcome?
Reply: inactive
